Would you mind telling me the reported MLR (CD4 T cell proliferation) repeat 1 of each entry?
- Tested System: chimeric BTLA of humanised-BTLA mice (human extracellular region, murine transmembrane and signaling … (human; mouse, UniProt Q7TSA3 184-306, limits assumed); note: test concentration or dose not given here
- Sequence (Q7TSA3 other isoform, or with tags, fused parts or gaps mutant limits assumed): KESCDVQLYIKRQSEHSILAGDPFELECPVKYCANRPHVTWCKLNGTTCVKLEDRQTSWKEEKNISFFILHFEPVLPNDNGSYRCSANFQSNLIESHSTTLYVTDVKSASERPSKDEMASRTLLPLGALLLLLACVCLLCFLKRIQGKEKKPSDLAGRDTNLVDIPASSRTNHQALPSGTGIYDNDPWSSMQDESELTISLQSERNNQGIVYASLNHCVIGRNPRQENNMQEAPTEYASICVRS
- Measurement Description: cell-based or functional assay
Answer format: value, then unit.

Return value of MLR (CD4 T cell proliferation) repeat 1 for input 831 (antibody, IgG1, V domains shown) VH: DVQLQESGPDLVKPSQSLSVTCTVTGYSITSGYSWHWIRQFPGNKLEWMGYIHYSGSTNYNPSLKSRISITRDTSKNQFFLQLSSVTTEDTATYYCASGPHRYDGVWFAYWGQGTLVTVSS VL: EIVLTQSPTTMAASPGEKITITCSASSSISSNYLHWYQQKPGFSPKLLIYRTSNLASGVPARFSGSGSGTSYSLTIGTMEAEDVATYYCQQGTNIPLTFGAGTKLEIK , no commentary. 25 % inhibition

Specify reported MLR (CD4 T cell proliferation) repeat 1 for the binder shown: 6.2 (antibody, IgG1, V domains shown, mIgG1; also called clone 6.2; parent clone 6.2) VH: EVKLVESGGGLVKPGGSLKLSCAASGFTLSSYGMSWVRQIPEKRLEWVASIRSDGNTYYPDSVKGRFIISRDNARNILYLQMSSLRSEDTAMYYCTRGGYYGSSPYYWGQGTTLTVSS VL: DIVMSQSPSSLPVSVGEKISMTCKSSQSLLYSSNQKNYLAWYQQKPGQSPKLLIYWASTRDSGVPDRFIGSGSGTDFTLTINSVKAEDLAVYYCQQYYNYLTFGAGTKLELK 31 % inhibition

Please indicate MLR (CD4 T cell proliferation) repeat 1 recorded for 8B4 (antibody, IgG1, V domains shown, mIgG1) VH: QVQLQQSGAELARPGASVKLPCKASGYTFTSYGISWVKQRTGQGLEWIGEIYPRSGTTYYNEKFKGKATLTADKSSSTAYMELRSLTSEDSAVYFCARRISSGSGVDYWGQGTTLTVSS VL: DIQMTQTTSSLSASLGDRVTISCSASQGISNYLNWYQQKPDGTVKLLIYYTSSLHSGVPSRFSGSGSGTDYSLTISNLEPEDIATYYCQQYSELPWTFGGGTKLEIK 33 % inhibition

For the binder 4B1 (antibody, IgG1, V domains shown, mIgG1) VH: QVQLQQSGAELARPGASVRLSCKASGYTFTSYGLIWLKQRTGQGLEWIGEIYPRSGSTYYNEWFKGKATLTADKSSNTAFMELRSLTSEDSAVYFCARRRGTGDGFDYWGQGTILTVSS VL: DIQMTQTTSSLSASLGDRVTISCSASQGISNYLNWYQQKPDGTVKLLIYYTSSLHSGVPSRFSGSGSGTDYSLTISNLEPEDIATYYCQQYIELPFTFGSGTKLEIK , give its measured MLR (CD4 T cell proliferation) repeat 1 value. 33 % inhibition

Give the reported MLR (CD4 T cell proliferation) repeat 1 for this binder. 14D4 (antibody, IgG1, V domains shown, mIgG1) VH: QVQLQQPGAELVKPRASVKLSCKASGYTFTSYWMHWVKQRPGQGLEWIGMIHPNNGIPNYNEKFKSKATLTVDKSSTTAYMQLSSLTSEDSAVYHCAREGYYGSEGYFDVWGTGTTVTVSS VL: QIVLTQSPAIMSASPGEKVTMTCSASSSISYIHWYQQKPGTSPKRWIYDTSKLASGVPARFSGSGSGTSYSLTISSMEAEDAATYYCHQRSTYPYTFGGGTKLEIK 39 % inhibition

Give the value of MLR (CD4 T cell proliferation) repeat 1 reported for the following: 21C7 (antibody, IgG1, V domains shown, mIgG1) VH: QIQLQQSGPELVKPGASVKISCKASGYAFSSSWMNWVKKRPGKGLEWIGRIYPGDGDANYNGKFKGKATLTADKSSSTAYMQLSSLTSEDSAVYFCAGEGHYYGSGYRWYLDVWGTGTTVTVSS VL: DIQMTQSPASLSVSVGETVTITCRASENIYSNLAWYQQKQGKSPQLLVYAATNLADGVPSRFSGSGSGTQYSLKINSLQSEDFGSYYCQHFRGAPFTFGSGTKLEIK 8 % inhibition

State its MLR (CD4 T cell proliferation) repeat 1 for this binder: 26B1 (antibody, IgG1, V domains shown, mIgG1) VH: EVQLQQSGPVLVKPGASVKMSCKASGYTFTDYYLNWVKQSHGKSLEWIGLIDPYNGGSSCNQKFKGKATLTVDKSSSTAYMDLNSLTSEDSAVYYCARGNAMDYWGQGTSVTVSS VL: DIVMTQSHKFMSTSVGDRVSITCKASQDVSTAVAWYQEKPGQSPKLLIYWASTRHTGVPDRFTGSGSGTDYILNISSVQAEDLALYYCQQHYIIPYMFGGGTKLEIK 12 % inhibition

Please supply the value of reported MLR (CD4 T cell proliferation) repeat 1 for the item 15B6 (antibody, IgG1, V domains shown) VH: QVQLQQPGAELVKPGASVKLSCKASGYTFTSYWMHWVKQRPGQGLEWIGMIHPNSGSTNYNEKFKSKATLTVDKSSSTAYMQLSSLTSEDSAVYYCARKRGGLGDYWGQGTSVTVSS VL: DIVLTQSPASLAVSLGQRATISCRASKSVSTSGYSYMHWYQQKPGQPPKLLIYLASNLESGVPARFSGSGSGTDFTLNIHPVEEEDAATYYCQHSRELPYTFGGGTKLEIK 7 % inhibition

Answer with the recorded MLR (CD4 T cell proliferation) repeat 1 of 3A9 (antibody, IgG1, V domains shown, mIgG1) VH: QVQLKQSGAELVRPGASVKLSCKASGYTFTDYYINWVKQRPGQGLEWIARIYPGSGNTYYNEKFKGKATLTAEKSSSTAYMQLSSLTSEDSAVYFCARGYGNSDYWGQGTTLTVSS VL: DILLTQSPAILSVSPGERVSFSCRASQSIGTRIHWYQQRTNGSPRLLIKYASESISGIPSRFSGSGSGTDFTLSINSVESEDIADYYCQQSNSWPYTFGGGTKLEIK only. 7 % inhibition

Annotate the binder 2.8.6 (antibody, V domains shown, mouse IgG1k hybridoma antibody; also called clone 2.8.6) VH: QVQLKESGPGLVAPSQSLSITCTVSGFSLTTYGVHWVRQSPGKGLEWLGVMWPGGRTSYNPAPMSRLSISKDNSKSQVFLKMNSLQTDDTAMYYCVRGDYEYDYYAMDYWGQGTSVTVSS VL: QIVLSQSPAILSASPGEKVTMTCRASSSVSYMHWYQQKPGSSPKPWIYATSNLASGVPARFSGSGSGTSYSLTISRMEAEDAATYYCHQWSSNPYTFGGGTKLEIK with its measured MLR (CD4 T cell proliferation) repeat 1. 30 % inhibition
